# assay system: human kappa opioid receptors (Homo sapiens, UniProt P41145)
# Construct: expressed in transfected cells; host or cells: U2OS
# Sequence (P41145 whole entry): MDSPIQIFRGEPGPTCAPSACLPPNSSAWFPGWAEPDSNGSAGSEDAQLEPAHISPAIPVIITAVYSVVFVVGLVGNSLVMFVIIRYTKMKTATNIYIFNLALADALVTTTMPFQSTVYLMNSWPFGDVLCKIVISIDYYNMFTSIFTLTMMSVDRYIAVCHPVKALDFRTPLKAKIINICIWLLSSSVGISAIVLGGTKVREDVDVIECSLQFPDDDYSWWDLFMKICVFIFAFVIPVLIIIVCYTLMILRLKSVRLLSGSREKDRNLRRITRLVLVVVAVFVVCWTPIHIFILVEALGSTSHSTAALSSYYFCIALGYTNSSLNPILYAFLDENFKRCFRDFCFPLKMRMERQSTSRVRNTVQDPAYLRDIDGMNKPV
# method summary: [35S]GTPγS binding, membranes from U2OS cells
# Format: biochemical
# condition description: GTPγS EC50 (nM), Table D

| compound | EC50 [nM] |
| --- | --- |
| O=C(Cc1ccc(Cl)c(Cl)c1)N1CCN(CCO)[C@@H]2COC[C@H](N3CCCC3)[C@H]21 (single isomer, unassigned) [Example 5A74A] | 21 |
| O=C(Cc1ccc(Cl)c(Cl)c1)N1CCN(C(=O)C2(O)CC2)[C@H]2COC[C@@H](N3CCCC3)[C@@H]21 (single isomer, unassigned) [Example 5A126B] | 17 |
| O=C(Cc1ccc(Cl)c(Cl)c1)N1CCN(C(=O)C2(O)CC2)[C@@H]2COC[C@H](N3CCCC3)[C@H]21 (single isomer, unassigned) [Example 5A126A] | 16 |
| O=C(Cc1ccc(Cl)c(Cl)c1)N1CCN(C(=O)CO)[C@@H]2COC[C@H](N3CCCC3)[C@H]21 (single isomer, unassigned) [Example 5A95A] | 21 |
| O=C(Cc1ccc(Cl)c(Cl)c1)N1CCN(CC2CCCO2)[C@H]2COC[C@@H](N3CCCC3)[C@@H]21 (single isomer, unassigned) [Example 5A138D] | 100 |
| O=C(Cc1ccc(Cl)c(Cl)c1)N1CCN(Cc2ncccn2)[C@@H]2COC[C@H](N3CCCC3)[C@H]21 (racemic) [rac-5A69] | 94 |
| O=C(Cc1ccc(Cl)c(Cl)c1)N1CCN(Cc2cccc(F)c2)[C@H]2COC[C@@H](N3CCCC3)[C@@H]21 (single isomer, unassigned) [Example 5A145B] | 9.7 |
| O=C(Cc1ccc(Cl)c(Cl)c1)N1CCN(Cc2ccn[nH]2)[C@@H]2COC[C@H](N3CCCC3)[C@H]21 (racemic) [rac-5A108] | 26 |
| O=C(Cc1ccc(Cl)c(Cl)c1)N1CCN(CC2COC2)[C@@H]2COC[C@H](N3CCCC3)[C@H]21 (single isomer, unassigned) [Example 5A83A] | 199 |
| O=C(Cc1ccc(Cl)c(Cl)c1)N1CCN(C(=O)C2(O)CCCC2)[C@H]2COC[C@@H](N3CCCC3)[C@@H]21 (single isomer, unassigned) [Example 5A125B] | 35 |
| CC(C)(O)CN1CCN(C(=O)Cc2ccc(Cl)c(Cl)c2)[C@H]2[C@H]1COC[C@@H]2N1CCCC1 (single isomer, unassigned) [Example 5A90A] | 22 |
| O=C(Cc1ccc(Cl)c(Cl)c1)N1CCN(C(=O)CO)[C@H]2COC[C@@H](N3CCCC3)[C@@H]21 (single isomer, unassigned) [Example 5A95B] | 202 |
| COCCN1CCN(C(=O)Cc2ccc(Cl)c(Cl)c2)[C@H]2[C@H](N3CCCC3)COC[C@@H]21 (single isomer, unassigned) [Example 5A141B] | 26 |
| COCCS(=O)(=O)N1CCN(C(=O)Cc2ccc(Cl)c(Cl)c2)[C@H]2[C@H](N3CCCC3)COC[C@@H]21 (single isomer, unassigned) [Example 5A146B] | 115 |
| O=C(CN1CCN(C(=O)Cc2ccc(Cl)c(Cl)c2)[C@H]2[C@H]1COC[C@@H]2N1CCCC1)N1CCCC1 (racemic) [rac-5A113] | 70 |
| O=C(Cc1ccc(Cl)c(Cl)c1)N1CCN(CC2COC2)[C@H]2COC[C@@H](N3CCCC3)[C@@H]21 (single isomer, unassigned) [Example 5A83B] | 24 |
| O=C(Cc1ccc(Cl)c(Cl)c1)N1CCN(S(=O)(=O)CCO)[C@H]2COC[C@@H](N3CCCC3)[C@@H]21 (single isomer, unassigned) [Example 5A140B] | 22 |
| O=C(Cc1ccc(Cl)c(Cl)c1)N1CCN(Cc2ncco2)[C@@H]2COC[C@H](N3CCCC3)[C@H]21 (racemic) [rac-5A111] | 9.8 |
| CC(F)(F)CN1CCN(C(=O)Cc2ccc(Cl)c(Cl)c2)[C@H]2[C@H]1COC[C@@H]2N1CCCC1 [Example 5A127A] | 5.3 |
| CC(O)CN1CCN(C(=O)Cc2ccc(Cl)c(Cl)c2)[C@H]2[C@H]1COC[C@@H]2N1CCCC1 (stereo partly shown) [Example 5A89] | 34 |
| O=C(Cc1ccc(Cl)c(Cl)c1)N1CCN(Cc2cccc(F)c2)[C@@H]2COC[C@H](N3CCCC3)[C@H]21 (single isomer, unassigned) [Example 5A145A] | 5 |
| O=C(Cc1ccc(Cl)c(Cl)c1)N1CCN(C(=O)C2(O)CCCC2)[C@@H]2COC[C@H](N3CCCC3)[C@H]21 (single isomer, unassigned) [Example 5A125A] | 58 |
